protease stability score values by entry
Test: protease stability score; higher = more stable; yeast display proteolysis, trypsin and chymotrypsin;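 further: relative to predicted unfolded state with 0 unfolded-like and 1 meaning tenfold more protease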

{"columns": ["ordered-residues", "protease stability score"],
 "data": [
  ["SEEEKRARIASELLFEYLHTGDETLWEELMDPDVRLEINGRLFHGMDSFRHALEIWLKEIRLRDMRVRELHVIGDKIHVNSEDEVEVNGRVVNYESRLDMEKIDGRWRIKRTSIK", 1.19],
  ["KEEEEDLKKATEDMMHLLSTGDWDTIYRLADPNTRIEINGREEVGMDLYVDKSMEEFRRLGIDKIHIHLHSVTNVNGKIYIDTRYEFNGVKIRMHIVIEKINGRWLLRTLSVK", 1.52],
  ["DEMEEHSRHLVELFWHWTDTGNEDLIRKNADPNVRLEVNGVHAHGWELYIRMMNQIRIEDRKINDVEVQGDKMRVDGEVQIYYNGKRVDDHLKLHLVVVDGKLKSVHRELE", 1.31],
  ["DEDKESAKTLVELLVEVLSTGDWKELLHLMDPNTRININGREVHGWHSMHELLRRMIEELRIKRLHLTEVRAQGDKVHVSSKMRVNIDGQDRLTQTHIDVHVFDGVIKTWTMHIE", 1.01],
  ["DEEERHVQTLYEIFLKLEITGNEHAIKRLLDPHTRLHINGREHHGREEVVEAVRFWLTEWRIHHFKIHNREVQGDKMYMDTRLEVEFNGVNEEVHMIIIMQKIDGRWILRRIEIE", 2.25],
  ["DEEEEREKELRERWEHFLKTGDWKKIEELADPHVRLDVGDKELVGRELFVEFIRRLLEHLGFNVFRINHIDLQGEKINMDVEREIGDKSTRVELHILKIDGQWILKRVIIN", 1.82]
]}

* * *

Test: protease stability score; higher = more stable; yeast display proteolysis, trypsin and chymotrypsin;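 further: relative to predicted unfolded state with 0 unfolded-like and 1 meaning tenfold more protease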
observable: protease stability score

{"columns": ["ordered-residues", "experimental-value"],
 "data": [
  ["SEQDEMAEKWVHMFLHSWFTGDEDFFETLLDPNVQLIVNGKHHHGREDVKRFLHEEYRRIDHIEDFHLRRLEIQGDFARLDGEVIMIVNGRRHEFRVEIRLFIVNGKMRSIEINEE", 2.23],
  ["DEEEEESKQVAELIITLLTTGDEERFLELADPNVRHHQGDKELHGREDLHKTVEDWGWSKVDSRLEDVEVQGEFVIVRGKMIVNGRRVDVEYIVRKVDGRWYIHMVIYH", 1.07],
  ["DEEDEHVKKAAEDFLRWWLTGDESRLLELFDPNMLLIIGDKHIHGRESVVHFFSELRERLGIDHIELEDVHIREVNGRAEFHSHILLHINGQKVKVDVRIHFHKVNGRWLFEHEHVEIR", 1.32],
  ["DEHRELEERMHELIQKANETGDWERWMELADPHTRLIVGDKEFHGMERSYEHILELFRRLGVERVEVRIERRDEQGEKINLDVIIIIGDKTIRLILIIYKVDGRWLLRSVEIR", 1.63],
  ["DEETRATKRFLDEVLEARATGDWRTLTRNMDPHYRLEIGEKEVHGMEEVSHMVTEEMVRLGIKHSDLKIKDSRFYNGVLHLDGRLILEVNGVRLESDVTLVELKVNGRWQIRFERWE", 1.08],
  ["DEDHELMRWMLELLIDHTLTGDEERIHELADPNVKIDVNGVELHGRHLWIKYLSELRIHKVEIRQTRLIDGVMHIDTSLDISYDGVRRETQHHLVILKINGKWMIHNVSYK", 1.15]
]}

* * *

Experiment: protease stability score; higher = more stable; yeast display proteolysis, trypsin and chymotrypsin;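 further: relative to predicted unfolded state with 0 unfolded-like and 1 meaning tenfold more protease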
# binarize protease stability score: threshold 1 inclusive, high side true, low side false

{"columns": ["ordered-residues", "class-label"],
 "data": [
  ["SESEEASEWVIKIWRDTMETGDEKTLNHLLDPSVRLVVNGQEIHGRESMIKEFRRFKNVKLHDIKHHDIDMIGDKIIIHGTIHGEINGREVTVEQEIISIKVNGKWLTRSLILH", "true"],
  ["SEEEHWVREFEEAVRHDAETGDENSISEFLDPNVRVDINGKELHGRELMDEMIRHFLERYDHIRIHIHDNRLIDGRVEMDIRLYFIQGEKHMEIDSERFIFKVDGKWRLEEVRIK", "false"],
  ["TEEKEEIDHAFELIWKAIDTGDEKFMTEQADPHTLTILVVDGQEIRLHGMEEFVRTFRELGIKHVRLEDIRIQGNKVEIHIRTNFNGRESEMRVHMEKVDGRWVLRSHRVIFK", "true"],
  ["SERDRHNEEMARHFIRLFLTGDWDDFQHLFDPNVRTHIDGRDYHGWRSTLEAVRTLEREIRIEEIRVEHVDTQGDFIHQDTKVDFNVNGQRVIRESKVHIYEVNGRIKEIEMHYH", "false"],
  ["DEEEKLARKIVEDWVRAMTTGDEDDLRRLADPNVRHDINGVELHGMDEWLRVLLERGYEIRIQFRHIRVYDGRVEIDIDLEIRIGDKHHHHHVHLIFEKIDGRWRMKSEKTD", "true"],
  ["SEIEHNLRLAEELLEKVTQTGNEELLHDLIDPNVRFYINGRDFVGREKNIKVFRSWGIDRVHFESEHIDIQGNKINFHGQINVNGKSMDTQIIAVKVNGRWLIKESWVD", "false"],
  ["SEEDQHIEEALRRISKVIHTGDEDKLEELVDPHVRLDVGDKVFHGWEDFVRFMTELRFHHMHVTHLETQGDKVRVELSLDREQGDKRKEMHAHIVLEKIDGKWVVREVEMR", "true"],
  ["SEEEEQAKRVIDHVTRAIHTGDEDVLRRQFDPHVKIEVGDKDIHGWETMYEILTHIRIETESDVKDFKVQGDKLIMDVRLRFTIRIDGVEIHRQTTTNIIVHKVNGRWQMKKVEIR", "false"],
  ["SEEEEYARKAAEEFIKHVETGNEDKIILLFDPNALYVYNGVELIGWHVFKEHTHRFKNIRRHITHVEIRVINGVVHVHIDGRFHVNGVDVEQEINIVFRKINGRWKIESNEERFR", "true"],
  ["SEEEEQAKEAVRHFIHKWQTGDEDRLKELLDPHTKIDIGDKHIHGREEATKLIRNELHRIKNIRVELRDIEVRVYDGVIELHIRGLEKYNGQEVHVTIILIFRKINGQWIIQSEHFHID", "true"],
  ["TEEDKLIEKAWRLFLHILHTGDWEEFHRLADPHMREDVNGVNLIGREDVLRHFIRLIEELGVKHSHVKDFRIHIFNGVIHTIMDVRTEYGDKSVDVRIHLEIEKIDGRWFLRTARIRLT", "true"],
  ["DEEQEILKEMAKEILHMLQTGDWKRFLELADPNVKNIVNGREVHGREIVVEYIRKMGIDHHILHDVHIQGDKIHIHGTLEVNGKRIEVEIEIVVVNGRVKMIIFILK", "true"],
  ["EESEKSAKLLLDWLFRHLITGNEETFQHFADPNARVDQGEKDSHGMEWVRLVLEEIRIDNMHVRDFRIFEGRLIIDTEIRIKYNGVEMTIKVTVVSEKVNGKWRMKSMHVN", "true"],
  ["TEEEEKVMEIIEIILHVLKTGDEHLLENLIDPNARSEYGDKELHGREQILRFAWWVSHHIRLKHLHIDSMRVFNGRIEIHGHNIGEINGRESEIHLSLIMIKVDGQWKIHSMRFE", "true"],
  ["DELEKFIKYVATRLVHDWMTGDEETSKKLLDPHYKTRILYDGRYTELHGREIFVKFVRELLEEIRIHLEVDRIRPIGDKVLLDTRLEIRIGDKRIERSTELHYVVINGRVDQMELVFI", "true"],
  ["DEEEETIRRDAKLTLDLIRTGDEEHLKKMLDPHVRLQIVIGDKTIENHGREEVIRRLRHEWKRFKNMRILIEDKRVVGNWVHFFGTILYNGVEHEAVLDLVLIDGVLHSIRINVI", "true"],
  ["EEEKEHLTHMAKLFHDLTQTGDEHLFNHLADPHVKIDVHIGDKDLHFHGREEFLWWILEIIEQWRIEFDLRDTIPVNGKVHVKTDIKINVNGREHRIETRLHLVIVNGKLKESEIRVS", "true"],
  ["DEDTEKVRWFFEVLKRASDTGNEEEELKLLDPNARYIFNGKNDHGRRAWERFKKNLGVKHVEIHPRDFDVVDGRIHIEIELRIHVDGREIRFDIEIIVEKFNGRWYLRSIHID", "false"],
  ["SEEDERTYKVAKDWHEALQTGNEEIMERLLDPHVRIDVVVDGKKSHKHGMEVVSETLRRIREHLRMKWEIHRVDAQGDKLFVDGRYHIEVGDKKEHYIMHVLMIVIDGRLHSLTIRNE", "true"],
  ["DESERDMETFVRITMDELVTGNEESIEEMLDPNVRLEVNGRQFHGREDATRIISEWIKILGINHRRLEEIRFVDGRAEVIVEIRVGDKRSELILISLKVNGQWRMERFEIRNE", "true"]
]}
